# Tested on: Vibrio cholerae
# ASSAY INFO: growth AUC normalised to DMSO control (fraction of control); higher = less growth inhibition, active = hit call of the paper
# EXPERIMENTAL CONDITIONS: 20 µM
Where a name gives a salt, the structure may show the parent alone.
So I've got a bunch of molecules here, and I need their growth AUC normalised to DMSO control values.
Reply briefly: the number, and no unit.

# growth AUC normalised to DMSO control lookup, item COCCCOc1ccnc(C[S+]([O-])c2nc3ccccc3[nH]2)c1C (stereo not drawn) [Rabeprazole sodium salt]
1.02

# growth AUC normalised to DMSO control lookup, item CN(C)CCC(c1ccc(Br)cc1)c1ccccn1 (stereo not drawn) [Brompheniramine maleate]
1.02

# growth AUC normalised to DMSO control lookup, item CCCCC[C@H](O)/C=C/[C@H]1[C@H](O)CC(=O)[C@@H]1CCCCCCC(=O)O [Alprostadil]
0.99
